Taken from patent US9062041B2.

biological target: EP4 subtype of the human PGE2 receptor (Homo sapiens, UniProt P35408); experiment: cAMP antagonism test on the human EP4 receptor (HTRF cAMP detection); type: cell-based; conditions: selectivity towards hEP4, IC50 measured by cAMP antagonism test
Sequence (P35408 whole entry): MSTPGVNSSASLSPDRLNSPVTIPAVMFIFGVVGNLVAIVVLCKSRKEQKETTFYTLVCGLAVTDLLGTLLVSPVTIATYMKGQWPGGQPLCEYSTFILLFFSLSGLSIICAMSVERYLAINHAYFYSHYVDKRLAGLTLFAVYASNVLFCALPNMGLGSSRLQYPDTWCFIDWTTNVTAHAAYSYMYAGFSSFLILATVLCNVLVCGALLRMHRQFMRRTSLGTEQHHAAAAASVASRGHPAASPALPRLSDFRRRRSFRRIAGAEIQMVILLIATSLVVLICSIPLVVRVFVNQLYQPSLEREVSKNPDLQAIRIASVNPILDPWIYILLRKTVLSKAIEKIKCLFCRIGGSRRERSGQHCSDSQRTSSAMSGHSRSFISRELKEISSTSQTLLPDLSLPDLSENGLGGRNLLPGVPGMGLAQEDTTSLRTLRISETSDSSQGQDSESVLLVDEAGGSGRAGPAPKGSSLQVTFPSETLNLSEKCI
measurement-type: Selectivity hEP2/hEP4

Some compounds with known Selectivity hEP2/hEP4 results, for comparison:
[[record]]
compound = "Cc1c(C(=O)NCCN2CCOCC2)ccc2nn(CC3CCN(C(=O)c4ccc(C(F)(F)F)cc4F)CC3)cc12"
result = "xx (xx: 10-100)"

[[record]]
compound = "COCCNC(=O)c1ccc2nn(CC3CCN(C(=O)c4cn(C)c5ccccc45)CC3)cc2c1OC"
result = "xxx (xxx > 100)"

[[record]]
compound = "Cc1c(C(=O)NCC(F)(F)F)ccc2nn(CC3CCN(C(=O)c4nc5ccccc5o4)CC3)cc12"
result = "xx (xx: 10-100)"

[[record]]
compound = "Cc1c(C(=O)NCCOCC2CC2)ccc2nn(CC3CCN(C(=O)c4ccc(Oc5ccc(F)cc5)cc4)CC3)cc12"
result = "xxx (xxx > 100)"


Reported EP4 subtype of the human PGE2 receptor (Homo sapiens, UniProt P35408) Selectivity hEP2/hEP4 for item Cc1c(C(=O)NCC2COCCO2)ccc2nn(CC3CN(C(=O)c4ccc(Oc5ccc(F)cc5)cc4)C3)cc12 (racemic) was xxx (xxx > 100)

Record for "Cc1c(C(=O)NCCN2CCOCC2)ccc2nn(CC3CCN(C(=O)c4ccc(Oc5ccc(F)cc5)cc4)CC3)cc12" under target or system EP4 subtype of the human PGE2 receptor (Homo sapiens, UniProt P35408): Selectivity hEP2/hEP4 reported as xx (xx: 10-100)

Considering "CCNC(=O)c1ccc2nn(CC3CCN(C(=O)c4ccc(Cl)cc4)CC3)cc2c1C" , its Selectivity hEP2/hEP4 with EP4 subtype of the human PGE2 receptor (Homo sapiens, UniProt P35408) was recorded as xx (xx: 10-100)

====

molecular target: EP2 subtype of the human PGE2 receptor (Homo sapiens, UniProt P43116); assay: cAMP antagonism test on the human EP2 receptor (HTRF cAMP detection); assay type: cell-based; conditions: hEP2 receptor, read-out: Antagonism hEP2 IC50
Sequence (P43116 whole entry): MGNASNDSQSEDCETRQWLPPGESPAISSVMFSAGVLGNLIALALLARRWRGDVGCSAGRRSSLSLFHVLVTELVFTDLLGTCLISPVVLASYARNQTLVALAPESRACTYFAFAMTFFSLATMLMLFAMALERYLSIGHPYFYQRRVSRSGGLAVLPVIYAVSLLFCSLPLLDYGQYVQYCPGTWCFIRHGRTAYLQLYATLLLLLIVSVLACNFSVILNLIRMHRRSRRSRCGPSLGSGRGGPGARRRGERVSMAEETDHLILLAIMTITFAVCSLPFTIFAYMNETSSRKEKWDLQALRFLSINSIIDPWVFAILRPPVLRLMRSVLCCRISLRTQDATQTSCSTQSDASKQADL
pIC50: −log10 of the molar value.
Kind request: treat 8 as inclusive, so pIC50 at 8 or higher is True, anything lower is False.

hey, is pIC50 for this one >= 8? Cc1cc2nn(CC3CN(C(=O)c4ccc(S(F)(F)(F)(F)F)cc4)C3)cc2cc1C(=O)NCCN1CCOCC1 [Example 280]
False

Test whether the compound COc1ccc(-c2ccc(C(=O)N3CCC(Cn4cc5c(C)c(C(=O)NCC(F)(F)F)ccc5n4)CC3)cc2)cn1 [Example 322] records pIC50 of 8 or higher.
False

Could you please find out whether Cc1c(C(=O)NCC(F)(F)F)ccc2nn(CC3CCN(C(=O)c4cn(C)c5ccccc45)CC3)cc12 [Example 289] has pIC50 that meets 8 or exceeds it?
False

I'd appreciate it if you could say whether Cc1cc2nn(CC3CN(C(=O)c4ccc(S(F)(F)(F)(F)F)cc4)C3)cc2cc1C(=O)NCCSC(F)(F)F [Example 187] has pIC50 at least equal to 8.
False

State whether the measured pIC50 reaches 8, counting equality as reaching it, for COCCNC(=O)c1ccc2nn(CC3CCN(C(=O)c4ccc(-c5ccc(F)cc5Cl)cc4)CC3)cc2c1C [Example 384]
True
